test: Blood Clearance in rat at 3 mg/kg, po; format: ADME, organism-based; parameters: dose 3 mg/kg, route oral; details: whole blood

{"Record Smiles": "O=C1CCCN1Cc1c(F)cc(-n2nc(C(F)(F)F)c3c2CCOC3)cc1F", "CL/F [mL/min/kg]": 22}
{"Record Smiles": "O=C(c1ccc(-n2nc(C(F)(F)F)c3c2CCOC3)cc1)N1CCCC1", "CL/F [mL/min/kg]": 6}
{"Record Smiles": "O=C1CCCN1Cc1ccc(-n2nc(C(F)(F)F)c3c2CCOC3)cc1", "CL/F [mL/min/kg]": 41}
{"Record Smiles": "O=C(c1ccc(-n2nc(C(F)(F)F)c3c2COCC3)cc1)N1CCCC1", "CL/F [mL/min/kg]": 13}
{"Record Smiles": "CN1CCc2c(C(F)(F)F)nn(-c3ccc(CN4CCCC4=O)cc3)c2C1", "CL/F [mL/min/kg]": 22}
